All figures here come from patent US9334263B2.

- subject_of_test: D816V Kit (Homo sapiens, UniProt P10721, D816V)
- Sequence (P10721 26-976 D816V): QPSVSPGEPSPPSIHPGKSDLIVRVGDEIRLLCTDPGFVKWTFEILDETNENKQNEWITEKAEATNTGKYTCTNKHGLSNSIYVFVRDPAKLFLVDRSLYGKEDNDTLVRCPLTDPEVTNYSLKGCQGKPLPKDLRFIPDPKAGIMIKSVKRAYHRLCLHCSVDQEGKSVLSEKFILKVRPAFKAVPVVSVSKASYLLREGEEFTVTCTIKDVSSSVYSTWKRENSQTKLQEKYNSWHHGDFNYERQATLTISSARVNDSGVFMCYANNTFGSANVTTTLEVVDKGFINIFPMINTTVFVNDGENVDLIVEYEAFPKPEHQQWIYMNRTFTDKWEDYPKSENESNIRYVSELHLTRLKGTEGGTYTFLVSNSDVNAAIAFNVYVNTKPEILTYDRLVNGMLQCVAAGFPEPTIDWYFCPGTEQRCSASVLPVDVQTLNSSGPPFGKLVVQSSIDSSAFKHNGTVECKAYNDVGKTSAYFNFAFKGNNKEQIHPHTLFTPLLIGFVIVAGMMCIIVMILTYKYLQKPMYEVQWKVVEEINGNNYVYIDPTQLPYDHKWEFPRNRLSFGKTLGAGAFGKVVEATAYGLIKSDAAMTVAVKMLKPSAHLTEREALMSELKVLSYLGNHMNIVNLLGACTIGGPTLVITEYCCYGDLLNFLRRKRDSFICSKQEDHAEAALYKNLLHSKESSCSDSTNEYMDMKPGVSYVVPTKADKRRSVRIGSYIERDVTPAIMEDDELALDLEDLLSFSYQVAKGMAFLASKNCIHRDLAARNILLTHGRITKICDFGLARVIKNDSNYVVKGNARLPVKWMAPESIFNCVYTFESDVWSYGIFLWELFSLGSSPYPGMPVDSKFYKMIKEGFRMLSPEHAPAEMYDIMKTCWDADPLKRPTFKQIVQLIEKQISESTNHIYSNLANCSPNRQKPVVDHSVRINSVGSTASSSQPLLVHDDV
- assay_name: Kit D816V assay at Km (Caliper electrophoretic mobility shift)
- measurement_parameters: 15 uM ATP, 25 C, 90 minutes
pIC50: −log10 of the molar value.
property: pIC50

Observe how each entry below is paired with its result.
{"columns": ["molecule", "subject_of_test", "property", "recorded_measurement"],
 "data": [
  ["CN1CCN(Cc2cccc(Nc3ncnc(N4CCN(c5ncc(Cc6ccccc6)cn5)CC4)n3)c2)CC1 [Compound 211]", "D816V Kit (Homo sapiens, UniProt P10721, D816V)", "pIC50", "> 9.00"],
  ["CC(C)(O)c1cccc(Nc2ncnc(N3CCN(c4ncc(Cc5ccccc5)cn4)CC3)n2)c1 [Compound 50]", "D816V Kit (Homo sapiens, UniProt P10721, D816V)", "pIC50", "8.00 to 9.00"],
  ["CC1(Cn2cc(Nc3ncnc(N4CCN(c5ncc(Cc6ccccc6)cn5)CC4)n3)cn2)COC1 [Compound 87]", "D816V Kit (Homo sapiens, UniProt P10721, D816V)", "pIC50", "8.00 to 9.00"],
  ["Clc1ncc(N2CCN(c3ncnc(Nc4ccc5c(c4)CNCC5)n3)CC2)nn1 [Compound 8]", "D816V Kit (Homo sapiens, UniProt P10721, D816V)", "pIC50", "7.00 to 8.00"],
  ["C[C@@H]1CN(c2ncnc(Nc3ccc(N4CCC[C@@H](O)C4)cc3)n2)CCN1c1ncc(Cc2ccccc2)cn1 [Compound 222]", "D816V Kit (Homo sapiens, UniProt P10721, D816V)", "pIC50", "8.00 to 9.00"],
  ["C[C@](O)(c1ccc(F)cc1)c1cnc(N2CCN(c3ncnc(Nc4cnn(C[C@@H]5CNCCO5)c4)n3)CC2)nc1 [Compound 269]", "D816V Kit (Homo sapiens, UniProt P10721, D816V)", "pIC50", "> 9.00"]
]}

// next item, pIC50 requested
Qu. Which value of pIC50 has been reported for c1ccc(Cc2cnc(N3CCN(c4ncnc(Nc5ccc6c(c5)CCCNC6)n4)CC3)nc2)cc1 [Compound 72] in the records?
Ans. > 9.00
